# key: entry, value: In Vitro Activity Compared to Native Peptide (%) vs. GLP-1 (relative titer from cAMP EC50)
# Test system: human GLP-1 receptor (human, UniProt P43220 24-463)
# Method summary: cell-based or functional assay
Bridge positions count the residues as written; N and C are the ends. Square brackets hold non-standard residues; d marks the D form. Ends that are not written are not given here. * marks the point of attachment. Acetyl(2-(4-imidazolyl)) = O=C(Cc1c[nH]cn1)*; Aib = CC(C)(N)C(=O)O
Measured endpoint: In Vitro Activity Compared to Native Peptide (%) vs. GLP-1 (relative titer from cAMP EC50)

{"Binder": "Y[Aib]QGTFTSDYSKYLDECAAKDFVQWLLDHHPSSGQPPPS (bridge 16-20; not fully specified (bridges)) [trigonal agonist of SEQ ID NO: 22]", "Value measured": 28.5}
{"Binder": "H[Aib]QGTFTSDYSKYLDECRQKEFVQWLLNGGPSSGAPPPSG (bridge 16-20; not fully specified (bridges)) [trigonal agonist of SEQ ID NO: 8]", "Value measured": 236}
{"Binder": "H[Aib]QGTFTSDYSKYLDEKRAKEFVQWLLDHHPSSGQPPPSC (bridge 16-20; not fully specified (bridges)) [trigonal agonist of SEQ ID NO: 11]", "Value measured": 67.4}
{"Binder": "H[Aib]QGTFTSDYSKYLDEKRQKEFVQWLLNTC (bridge 16-20; not fully specified (bridges)) [trigonal agonist of SEQ ID NO: 12]", "Value measured": 14.4}
{"Binder": "Y[Aib]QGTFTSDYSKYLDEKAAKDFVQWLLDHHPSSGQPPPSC (bridge 16-20; not fully specified (bridges)) [trigonal agonist of SEQ ID NO: 32]", "Value measured": 38.7}
{"Binder": "{Acetyl(2-(4-imidazolyl))}-[Aib]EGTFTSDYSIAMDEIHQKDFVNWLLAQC (lactam 15-19) [trigonal agonist of SEQ ID NO: 36]", "Value measured": 47.3}
{"Binder": "Y[Aib]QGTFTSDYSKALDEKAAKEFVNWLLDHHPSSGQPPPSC (bridge 16-20; not fully specified (bridges)) [trigonal agonist of SEQ ID NO: 42]", "Value measured": 28.1}
{"Binder": "Y[Aib]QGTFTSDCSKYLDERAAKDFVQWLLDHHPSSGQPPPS (bridge 16-20; not fully specified (bridges); ends not checked) [trigonal agonist of SEQ ID NO: 27]", "Value measured": 11.5}
{"Binder": "H[Aib]QGTFTSDYSKYLDEKACKEFVQWLLAQ (bridge 16-20; not fully specified (bridges)) [trigonal agonist of SEQ ID NO: 4]", "Value measured": 135}
{"Binder": "H[Aib]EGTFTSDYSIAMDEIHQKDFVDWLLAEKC (bridge 16-20; not fully specified (bridges)) [trigonal agonist of SEQ ID NO: 35]", "Value measured": 8.1}
